assay: Resazurin-based in vitro cytotoxicity with L-6 cells; assay type: cell-based, rat; conditions: rat
recordedMetric: IC50 at 70 h (µM)
One number for each entry, in µM.

compound="O=C(Nc1ccc(N2CCNCC2)cc1)c1cccc(F)c1Oc1ccc(F)cc1 [Compound 60]" recordedmetric="IC50 at 70 h" resultunit=µM experimentalresult=40.8
compound="O=C(c1cccc(C(F)(F)F)c1Oc1ccc(F)cc1)N1CCNCC1 [Compound 52]" recordedmetric="IC50 at 70 h" resultunit=µM experimentalresult=136
compound="CC(C)(C)OC(=O)N1CCN(C(=O)c2cccc(C(F)(F)F)c2Oc2ccc(F)cc2)CC1 [Compound 50]" recordedmetric="IC50 at 70 h" resultunit=µM experimentalresult=41.4
compound="O=C(Nc1ccccc1N1CCNCC1)c1cccc(C(F)(F)F)c1Oc1ccc(F)cc1 [Compound 53]" recordedmetric="IC50 at 70 h" resultunit=µM experimentalresult=13.5
compound="O=C(Nc1ccccc1N1CCOCC1)c1cccc(C(F)(F)F)c1Oc1ccc(F)cc1 [Compound 32]" recordedmetric="IC50 at 70 h" resultunit=µM experimentalresult=161

Hi team, please reply with IC50 at 70 h for each item in this list.
1. O=C(Nc1ccccc1N1CCNCC1)c1cccc(C(F)(F)F)c1Sc1ccc(F)cc1 [Compound 55]
2. CN1CCN(C(=O)c2cccc(C(F)(F)F)c2Oc2ccc(F)cc2)CC1 [Compound 49]
3. O=C(Nc1cccc(N2CCNCC2)c1)c1cccc(C(F)(F)F)c1Oc1ccc(F)cc1 [Compound 56]

Result:
1. 7.06
2. 137
3. 34.2

For each listed entry, give its IC50 at 70 h.
1. O=C(Nc1ccc(N2CCNCC2)cc1)c1cccc(C(F)(F)F)c1Oc1ccccc1 [Compound 58]
2. O=C(c1cccc(C(F)(F)F)c1Oc1ccc(F)cc1)N1CCOCC1 [Compound 51]
3. O=C(Nc1ccc(N2CCNCC2)cc1)c1cccc([N+](=O)[O-])c1Oc1ccc(F)cc1 [Compound 61]
4. O=C(Nc1ccc(N2CCNCC2)cc1)c1cccc(C(F)(F)F)c1Sc1ccc(F)cc1 [Compound 62]
5. O=C(Nc1ccc(N2CCOCC2)cc1)c1cccc(C(F)(F)F)c1Oc1ccc(F)cc1 [Compound 33]
6. O=C(Nc1ccc(N2CCNCC2)cc1)c1cccc(C(F)(F)F)c1Oc1ccc(F)cc1 [Compound 57]

Result:
1. 25.9
2. 154
3. 43.8
4. 13.1
5. 195
6. 37.3
